- procedure.details: refractive index (Na D-line) (dimensionless)
- condition.notes: 303.15 K; 101.33 kPa; Liquid; Standard Abbe refractometry
Numbers after ± are expanded uncertainties.
refractive index values, listed per item

smiles.notation	refractive index
COCCOCCOC	1.40359 ± 0.00066
CCOCCOCCO	1.4229 ± 0.0007
COCCOCCO	1.42174 ± 0.00061
CCOCCOCCOCC	1.40749 ± 0.0007
COCCOCCOCCOC	1.41862 ± 0.00061
CCOCCO	1.40613 ± 0.00061
COCCOCCOCCOCCOC	1.42777 ± 0.00061
OCCO	1.42855 ± 0.00058
OCCOCCO	1.44379 ± 0.00061
OCCOCCOCCO	1.45283 ± 0.00061

----------
- condition.notes: 303.15 K; 101.33 kPa; Liquid; Sing-around technique in a fixed-path interferometer
speed of sound values, listed per item
recorded.metric: speed of sound (m/s)

smiles.notation	quantitative.result
OCCOCCOCCO	1596.2
COCCOCCOCCOC	1322.8
COCCOCCOCCOCCOC	1363.1
COCCOCCOC	1260.1
CCOCCOCCOCC	1223.4
CCOCCOCCO	1356.8

----------
mass density values, listed per item
- condition.notes: 358.15 K; 101.33 kPa; Liquid; Vibrating tube method

compound	mass density, kg/m3
CCOCCO [2-ethoxyethan-1-ol]	871
COCCOCCO [2-(2-methoxyethoxy)ethanol]	962.5
COCCOCCOCCOCCOC [2,5,8,11,14-pentaoxapentadecane]	952.7
CCOCCOCCO [3,6-dioxa-1-octanol]	930.7
OCCOCCO [diethylene glycol]	1070.3
CCOCCOCCOCC [diethylene glycol diethyl ether]	846.3

----------
- condition.notes: 288.15 K; 101.33 kPa; Liquid; Concentric cylinders viscometry
Would you please tag the item label 1 when its viscosity is 2 mPa·s or above, and label 0 when it is below?

smiles.notation	group
COCCOCCOCCOCCOC	label 1
COCCOCCOC	label 0
CCOCCOCCOCC	label 0
CCOCCO	label 1
OCCOCCOCCO	label 1
OCCO	label 1

----------
speed of sound values, listed per item
- condition.notes: 313.15 K; 101.33 kPa; Liquid; Sing-around technique in a fixed-path interferometer
recorded.metric: speed of sound (m/s)

smiles.notation	quantitative.result
OCCO	1619.3
COCCOCCOC	1220.6
COCCOCCOCCOC	1284.4
OCCOCCOCCO	1566

----------
- condition.notes: 298.15 K; 101.33 kPa; Liquid; Concentric cylinders viscometry
Recorded viscosity determines the label; the label ranges are c1 = under 2 mPa·s, c2 = from 2 mPa·s up to 4 mPa·s, c3 = 4 mPa·s and over

smiles.notation	group
OCCO	c3
OCCOCCOCCO	c3
CCOCCOCCOCC	c1
CCOCCOCCO	c2
COCCOCCOCCOCCOC	c2
OCCOCCO	c3
CCOCCO	c1
COCCOCCOC	c1
COCCOCCO	c2

----------
refractive index values, listed per item
- procedure.details: refractive index (Na D-line) (dimensionless)
- condition.notes: 323.15 K; 101.33 kPa; Liquid; Standard Abbe refractometry
recorded.metric: refractive index

smiles.notation	quantitative.result
COCCOCCO	1.41368
CCOCCOCCOCC	1.39838
OCCO	1.4226
COCCOCCOCCOCCOC	1.41973
OCCOCCO	1.43745
COCCOCCOCCOC	1.41005
CCOCCO	1.39691
CCOCCOCCO	1.41483
COCCOCCOC	1.3949
OCCOCCOCCO	1.44626

All values here come from the NIST ThermoML archive (doi:10.1021/acs.jced.5b00662).
